Attribute: Percent Effect
molecular target: Arginase-2, mitochondrial (Homo sapiens) (UniProt P78540); assay: in vitro enzyme assay to detect the production of urea directly proportional to the activity of Arginase II; assay type: functional; design: scale not given: in the data most compounds retested in dose-response had high values; conditions: 33.3 µM
Sequence (P78540 whole entry): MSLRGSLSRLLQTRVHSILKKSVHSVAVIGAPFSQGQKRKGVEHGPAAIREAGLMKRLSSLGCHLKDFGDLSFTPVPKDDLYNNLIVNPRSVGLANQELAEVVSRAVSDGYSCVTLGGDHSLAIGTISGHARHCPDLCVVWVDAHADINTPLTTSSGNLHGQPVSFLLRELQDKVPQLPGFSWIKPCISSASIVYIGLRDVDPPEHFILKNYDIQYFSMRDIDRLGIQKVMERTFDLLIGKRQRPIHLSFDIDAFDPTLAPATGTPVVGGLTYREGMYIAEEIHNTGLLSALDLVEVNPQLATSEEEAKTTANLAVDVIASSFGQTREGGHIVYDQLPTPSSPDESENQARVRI
Include the unit after the number when you answer.

compound	study system	Percent Effect
CN(C)[C@H]1CCCCN(C(=O)CCc2csc(N)n2)C1	Arginase-2, mitochondrial (Homo sapiens) (UniProt P78540)	-0.35%
CN(C)C(C(=O)N1CCCC1)c1ccccc1F (stereo unspecified)	Arginase-2, mitochondrial (Homo sapiens) (UniProt P78540)	5.3%
OCC1CCCN1c1cc(N2CCC(OC3CCCC3)CC2)ncn1 (stereo unspecified)	Arginase-2, mitochondrial (Homo sapiens) (UniProt P78540)	2.32%

IN: Param readout= Percent Effect; system= Arginase-2, mitochondrial (Homo sapiens) (UniProt P78540); entry= Cc1ccc2oc(C(=O)N3CCC(C(=O)N4CCCC4)CC3)cc2n1 ; returns value.
OUT: 6.56%
